// reported combination Emax per item
test system: Detroit562 (Head and Neck Carcinoma); assay: combination Emax (second highest fraction inhibited in the dose matrix, 72 h); higher = more inhibition; extreme values may be limits of the assay
Give the figure by itself; no unit, no explanation.

Use the examples below as a reference point.
compound: CC(=O)c1c(C)c2cnc(Nc3ccc(N4CCNCC4)cn3)nc2n(C2CCCC2)c1=O [Palbociclib] + CC1(C)CCC(CN2CCN(c3ccc(C(=O)NS(=O)(=O)c4ccc(NCC5CCOCC5)c([N+](=O)[O-])c4)c(Oc4cnc5[nH]ccc5c4)c3)CC2)=C(c2ccc(Cl)cc2)C1 [Venetoclax] (first compound max 10 µM, 7x7, partner max 1 µM)
combination Emax: 0.543
//
compound: COc1nnc2ccc(N3CCC(c4ccc(OCCN5CCN(C)C(=O)[C@H]5C)cc4)CC3)nn12 [AZD5153] + CCN(CCO)CCCOc1ccc2c(Nc3cc(CC(=O)Nc4cccc(F)c4)[nH]n3)ncnc2c1 [AZD2811] (first compound max 1 µM, 7x7, partner max 1 µM)
combination Emax: 0.892

// switching to the query compound
Would you mind telling me what combination Emax value was observed for CC(=O)Nc1cccc(-n2c(=O)n(C3CC3)c(=O)c3c(Nc4ccc(I)cc4F)n(C)c(=O)c(C)c32)c1 [Trametinib] + Cc1nc(-c2cn3c(n2)-c2ccc(-c4cnn(C(C)(C)C(N)=O)c4)cc2OCC3)n(C(C)C)n1 [Taselisib] (first compound max 1 µM, 7x7, partner max 10 µM) ?
0.954
